Compiled record: pKi values for DNA-PK (Homo sapiens, UniProt P78527) across several sources.
pKi: −log10 of the molar value.

>  <compound>
CCNc1ccc(-c2cc(NC[C@@H](C)c3cccc4c(C(=O)NC)c(F)cnc34)ncn2)cn1

>  <pKi>
> 7.52

$$$$
>  <compound>
CNC(=O)c1c(F)cnc2c([C@H](C)CNc3cc(-c4cnc(C(C)C)nc4)ncn3)cccc12

>  <pKi>
> 7.52

$$$$
>  <compound>
CCNc1ccc(-c2cc(NC[C@@H](C)c3ccc(C(=O)NC)cc3OC)ncn2)cn1

>  <pKi>
> 7.52

$$$$
>  <compound>
CNC(=O)c1ccnc2c([C@H](C)CNc3cc(-c4ccc(C(=O)O)cc4)ncn3)cccc12

>  <pKi>
> 7.52

$$$$
>  <compound>
COc1sccc1C(C)CNc1cc(-c2cnc3c(cnn3CC3CC3)c2)ncn1 (stereo not drawn)

>  <pKi>
> 7.52

$$$$
>  <compound>
Cc1cc([C@H](C)CNc2cc(-c3ccc4ncccc4c3)ncn2)c2c(n1)CCO2

>  <pKi>
> 7.52

$$$$
>  <compound>
CNC(=O)c1cc(C)nc2c([C@H](C)CNc3cc(-c4ccc(C)nc4)ncn3)cccc12

>  <pKi>
> 7.52

$$$$
>  <compound>
CNC(=O)c1ccc(C(C)CNc2cc(-c3ccc(OC4COC4)nc3)ncn2)c(OC)c1 (stereo not drawn)

>  <pKi>
> 7.52

$$$$
>  <compound>
CCN(CC)c1cnc(N[C@H]2CC[C@@H](Oc3cc(N4CCOCC4)cc4nccnc34)CC2)nc1

>  <pKi>
> 7.00

$$$$
>  <compound>
COc1ccccc1CCNc1cc(-c2ccc(C)nc2)ncn1

>  <pKi>
> 7.52

$$$$
>  <compound>
[2H]c1nc(C)nc([2H])c1-c1cc(NC[C@@H](C)c2cccc3c(C(N)=O)ccnc23)ncn1

>  <pKi>
> 7.52

$$$$
>  <compound>
Oc1cnc(N[C@H]2CC[C@@H](Oc3cc(N4CCOCC4)cc4nccnc34)CC2)nc1

>  <pKi>
> 7.00

$$$$
>  <compound>
COc1cnc(N[C@H]2CC[C@@H](Oc3cc(N4CCOCC4)cc4nccnc34)CC2)nc1

>  <pKi>
> 7.00

$$$$
>  <compound>
CNC(=O)c1ccnc2c([C@H](C)CNc3cc(-c4cnc(C5CCC5)nc4)ncn3)cccc12

>  <pKi>
> 7.52

$$$$
>  <compound>
COc1ccccc1CCNc1cc(-c2cnc3c(cnn3C)c2)ncn1

>  <pKi>
> 7.52

$$$$
>  <compound>
CNC(=O)c1ccnc2c([C@H](C)CNc3cc(-c4cnc(OC)c(F)c4)ncn3)cccc12

>  <pKi>
> 7.52

$$$$
>  <compound>
COc1ccsc1C(C)CNc1cc(-c2cnc3c(cnn3CC3CC3)c2)ncn1 (stereo not drawn)

>  <pKi>
> 7.52

$$$$
>  <compound>
CNC(=O)c1ccnc2c([C@H](C)CNc3cc(-c4cnnc(C)c4)ncn3)ccc(F)c12

>  <pKi>
> 7.52

$$$$
>  <compound>
O=C(O)c1ccc(N[C@H]2CC[C@@H](Oc3cc(N4CCOCC4)cc4nccnc34)CC2)nc1

>  <pKi>
> 7.00

$$$$
>  <compound>
CCOc1ccccc1[C@H](C)CNc1cc(-c2ccc(C)nc2)ncn1

>  <pKi>
> 7.52

$$$$
>  <compound>
CCOc1ccc(-c2cc(NC[C@@H](C)c3ccc(F)c4c(C(=O)NC)ccnc34)ncn2)cn1

>  <pKi>
> 7.52

$$$$
>  <compound>
COc1ccccc1[C@H](C)CNc1cc(-c2ccc(NC(CO)CO)nc2)ncn1

>  <pKi>
> 7.52

$$$$
>  <compound>
COCc1cnc(N[C@H]2CC[C@@H](Oc3cc(N4CCOCC4)cc4nccnc34)CC2)nc1

>  <pKi>
> 7.00

$$$$
>  <compound>
Cc1ncc(-c2cc(NC[C@@H](C)c3cccc4cc(F)cnc34)ncn2)cn1

>  <pKi>
> 7.52

$$$$
>  <compound>
CC(CNc1cc(-c2ccc(C(=O)NCCC#N)cc2)ncn1)c1ccnc2cccnc12 (stereo not drawn)

>  <pKi>
> 7.52

$$$$
>  <compound>
CNC(=O)c1ccc(C(C)CNc2cc(-c3ccc(CCO)cc3)ncn2)c(OC)c1 (stereo not drawn)

>  <pKi>
> 7.52

$$$$
>  <compound>
Cc1cc([C@H](C)CNc2cc(-c3cnc4c(cnn4CCO)c3)ncn2)c2c(n1)CCO2

>  <pKi>
> 7.52

$$$$
>  <compound>
COc1ccccc1CCNc1cc(-c2ccc(N3CCCC3)nc2)ncn1

>  <pKi>
> 7.52

$$$$
>  <compound>
N#Cc1ccnc(N[C@H]2CC[C@@H](Oc3cc(N4CCOCC4)cc4nccnc34)CC2)n1

>  <pKi>
> 7.00

$$$$
>  <compound>
CC(=O)N1CCN(c2ccc(-c3cc(NCC(C)c4ccccc4OCc4ccccc4)ncn3)cn2)CC1 (stereo not drawn)

>  <pKi>
> 7.52

$$$$
>  <compound>
COc1ccsc1C(C)CNc1cc(-c2cnc3c(cnn3CCO)c2)ncn1 (stereo not drawn)

>  <pKi>
> 7.52

$$$$
>  <compound>
COc1ccccc1CCNc1cc(-c2ccc3c(cnn3C)c2)ncn1

>  <pKi>
> 7.52

$$$$
>  <compound>
Cc1ccc(-c2cc(NCC(C)c3cccc4nc(C)c(C)nc34)ncn2)cn1 (stereo not drawn)

>  <pKi>
> 7.52

$$$$
